RUN DESCRIPTION: probe aCHRDL2 binding to arrayed compounds – biochemical, biotinylated probe, 635/667 nm fluorescence, primary screen (AID 1100)
TEST PARAMETERS: small-molecule microarray, higher = more signal
composite z-score values for the compounds below.
TEST READOUT: composite z-score

INPUT SMILES: COc1ccc([Si](C)(C)[C@@H]2[C@@H](CCO)O[C@]3(C(=O)N(Cc4ccccc4)c4ccc(N(C=O)c5ccccc5)cc43)[C@H]2C)cc1
RESULT: -0.025
--
INPUT SMILES: O=C1c2ccccc2[C@](Cc2ccccc2I)(C(=O)O)[C@H](c2ccc(CO)cc2)N1Cc1ccccc1C(F)(F)F
RESULT: -0.388
--
INPUT SMILES: CCCC[C@H]1C[C@@H]1[C@@H]1N(P(=O)(c2ccccc2)c2ccccc2)[C@](CO)(c2ccccc2)CC12CC2
RESULT: 1.01
--
INPUT SMILES: COc1ccc(C(=O)Nc2cccc(CN3C(=O)[C@@]4(O[C@@H](CC(=O)N5Cc6ccccc6C[C@H]5CO)[C@H]([Si](C)(C)c5ccc(OC)cc5)[C@H]4C)c4ccccc43)c2)cc1
RESULT: -0.0642
--
INPUT SMILES: C=CCN1Cc2ccccc2C[C@@]2(COC(c3ccc(OCCCO)cc3)=N2)C1=O
RESULT: 1.15
--
INPUT SMILES: CC(=O)NCCCC[C@@H]1NC(=O)[C@@H]2C[C@H](C(=O)NCCCCCC[N+](C)(C)C)[C@H](c3cccc(OCCO)c3)N2C1=O
RESULT: -0.0962
--
INPUT SMILES: O=C1O[C@H](c2ccccc2)[C@H](c2ccccc2)N2[C@H]1[C@@H](C(=O)Nc1nc3ccccc3s1)[C@]1(C(=O)Nc3ccc(C#CC4=CCCCC4)cc31)[C@H]2c1ccc(OCCO)cc1
RESULT: 0.54
--
INPUT SMILES: COC(=O)[C@@]1(Cc2ccc(F)cc2)[C@H]2c3cc(C(=O)N4CCCC4)n(Cc4ccc(Cl)c(C(F)(F)F)c4)c3C[C@H]2CN1C(=O)c1ccccc1
RESULT: 1.58
--
INPUT SMILES: NC(=O)[C@]1(Cc2ccccc2)N=C(c2ccc(OCCCO)cc2)O[C@@H]1c1ccccc1
RESULT: 0.751
--
INPUT SMILES: O=C1c2ccccc2[C@@]2(Cc3ccccc3N(Cc3ccccc3)C2=O)[C@H](c2ccc(CO)cc2)N1Cc1ccccc1C(F)(F)F
RESULT: 0.847
--
INPUT SMILES: [N-]=[N+]=NCc1ccccc1[C@@H]1OC(c2ccc(OCCCO)cc2)=N[C@]1(Cc1ccccc1)C(=O)O
RESULT: 0.917
--
INPUT SMILES: COc1cc(CO)cc(I)c1O[C@H]1C=C(C(=O)NCCO)C[C@@H](N(CCc2cccc(F)c2)C(=O)CCC2CCCC2)[C@@H]1O
RESULT: 0.252
--
INPUT SMILES: COCCn1c(C(=O)N(C)C)cc2c1C[C@H]1CN(C(=O)c3ccccc3)[C@@](Cc3ccc(F)cc3)(C(=O)OC)[C@@H]21
RESULT: 0.843
--
INPUT SMILES: [N-]=[N+]=Nc1ccccc1[C@@H]1OC(c2ccc(OCCCO)cc2)=N[C@]1(CCS(=O)(=O)c1ccccc1)C(=O)O
RESULT: 0.54
